measured.on: Solute carrier family 22 member 20 (Mus musculus, UniProt Q80UJ1)
Sequence (Q80UJ1 whole entry): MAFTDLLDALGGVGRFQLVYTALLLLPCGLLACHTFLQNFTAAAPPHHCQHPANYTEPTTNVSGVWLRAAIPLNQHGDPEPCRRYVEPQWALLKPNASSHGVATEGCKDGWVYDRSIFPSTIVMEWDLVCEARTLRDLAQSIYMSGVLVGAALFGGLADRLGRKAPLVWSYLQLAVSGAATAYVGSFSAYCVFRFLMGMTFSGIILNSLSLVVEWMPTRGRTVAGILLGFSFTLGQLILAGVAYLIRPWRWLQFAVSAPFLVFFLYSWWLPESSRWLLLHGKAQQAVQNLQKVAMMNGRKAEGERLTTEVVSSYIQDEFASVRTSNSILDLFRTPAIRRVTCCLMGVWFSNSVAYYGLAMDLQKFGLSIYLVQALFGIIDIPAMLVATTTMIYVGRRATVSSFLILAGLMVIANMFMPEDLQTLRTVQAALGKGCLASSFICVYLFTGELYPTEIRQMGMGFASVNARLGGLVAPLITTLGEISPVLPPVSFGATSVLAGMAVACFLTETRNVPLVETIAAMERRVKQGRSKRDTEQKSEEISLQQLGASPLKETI
test.method.notes: Inhibition of mouse Oat6-mediated [3H]ES uptake in Xenopus oocytes after 1 hr
Format: cell-based, Oocyte
experimental.setup: read-out: Ki
pKi: −log10 of the molar value.
Label class 1 when pKi is at or above 3; otherwise label class 0.

Before answering, review these 3 worked examples.
1) O=C(O)/C=C/C(=O)O :: class 0
2) CC(C)CC(=O)O :: class 1
3) C[C@@H]1Cc2c(Cl)cc(C(=O)N[C@@H](Cc3ccccc3)C(=O)O)c(O)c2C(=O)O1 [3R14S-OCHRATOXIN A] :: class 1

QUERY: Assess whether reported pKi for `C[C@]12CC[C@@H]3c4ccc(OS(=O)(=O)O)cc4CC[C@H]3[C@@H]1CCC2=O` sits at 3 or higher.
RESULT: class 1

QUERY: Assess whether reported pKi for CC(C)Cc1ccc(C(C)C(=O)O)cc1 (stereo unspecified) sits at 3 or higher.
RESULT: class 1

QUERY: Assess whether reported pKi for `CC1(C)S[C@@H]2[C@H](NC(=O)[C@H](C(=O)O)c3ccsc3)C(=O)N2[C@H]1C(=O)O` sits at 3 or higher.
RESULT: class 1

QUERY: Assess whether reported pKi for `O=C(O)c1ccccc1O` sits at 3 or higher.
RESULT: class 1
